Tested on: enteroendocrine STC1-1 cell line
Test: CCK release from intestinal cells (in-vitro trial, CCK RIA)
Assay type: cell-based
Set-up: unit not given here
Conditions: 100 microM, free fatty acid form, 1 hour incubation, RIA of supernatant, measured in 6-fold, ethanol baseline 53
QUANTITY NAME: CCK release (Effects of fatty acids on CCK release)

[
  {
    "MOLECULE": "CCCCC/C=C\\C/C=C\\CCCC/C=C\\CCCC(=O)O [Sciadonic acid (20:3), Sciadonic acid]",
    "TEST SYSTEM": "enteroendocrine STC1-1 cell line",
    "MEASURED NUMBER": 79
  },
  {
    "MOLECULE": "CC/C=C\\C/C=C\\C/C=C\\C/C=C\\CCCCC(=O)O [Stearidonic acid (18:4), Stearidonic acid]",
    "TEST SYSTEM": "enteroendocrine STC1-1 cell line",
    "MEASURED NUMBER": 69
  },
  {
    "MOLECULE": "CCCCCC=CCC=CCC=CCC=CCCCC(=O)O [Arachidonic acid (20:4), 5,8,11,14-eicosatetraenoic acid]",
    "TEST SYSTEM": "enteroendocrine STC1-1 cell line",
    "MEASURED NUMBER": 392
  },
  {
    "MOLECULE": "CCCCCC=CC=CCCCCCCCCC(=O)O (single isomer, unassigned) [CLA 10, 12 isomer]",
    "TEST SYSTEM": "enteroendocrine STC1-1 cell line",
    "MEASURED NUMBER": 133
  },
  {
    "MOLECULE": "CC/C=C\\C/C=C\\C/C=C\\C/C=C\\C/C=C\\CCCC(=O)O [Eicosapentanoic acid (20:5), Eicosapentanoic acid]",
    "TEST SYSTEM": "enteroendocrine STC1-1 cell line",
    "MEASURED NUMBER": 164
  },
  {
    "MOLECULE": "CC/C=C\\C/C=C\\C/C=C\\CCCC/C=C\\CCCC(=O)O [Juniperonic acid (20:4), Juniperonic acid]",
    "TEST SYSTEM": "enteroendocrine STC1-1 cell line",
    "MEASURED NUMBER": 97
  },
  {
    "MOLECULE": "CCCCCCCC/C=C\\CCCCCCCC(=O)O [Oleic acid (18:1), Oleic acid]",
    "TEST SYSTEM": "enteroendocrine STC1-1 cell line",
    "MEASURED NUMBER": 90
  },
  {
    "MOLECULE": "CCCCC/C=C\\C/C=C\\C/C=C\\CCCCC(=O)O [Gamma-linolenic acid (18:3), Gamma-linolenic acid]",
    "TEST SYSTEM": "enteroendocrine STC1-1 cell line",
    "MEASURED NUMBER": 140
  },
  {
    "MOLECULE": "CCCCCCCCCCCC(=O)O [Lauric acid]",
    "TEST SYSTEM": "enteroendocrine STC1-1 cell line",
    "MEASURED NUMBER": 118
  }
]

====

Tested on: enteroendocrine STC1-1 cell line
Experiment: CCK release from intestinal cells (in-vitro trial, CCK RIA)
Format: cell-based
Conditions: 100 microM, free fatty acid form, 1 hour incubation, RIA of supernatant, measured in 6-fold, ethanol baseline 53
QUANTITY NAME: CCK release (Effects of fatty acids on CCK release)

[
  {
    "MOLECULE": "CCCC/C=C/C=C/C=C\\CCCCCCCC(=O)O",
    "TEST SYSTEM": "enteroendocrine STC1-1 cell line",
    "MEASURED NUMBER": 212
  },
  {
    "MOLECULE": "CCCCCC/C=C/C=C/CCCCCCCC(=O)O (single isomer, unassigned) [CLA 9, 11 isomer]",
    "TEST SYSTEM": "enteroendocrine STC1-1 cell line",
    "MEASURED NUMBER": 135
  },
  {
    "MOLECULE": "CCCCCCCCCC(=O)O",
    "TEST SYSTEM": "enteroendocrine STC1-1 cell line",
    "MEASURED NUMBER": 43
  },
  {
    "MOLECULE": "CC/C=C\\C/C=C\\C/C=C\\CCCCCCCC(=O)O",
    "TEST SYSTEM": "enteroendocrine STC1-1 cell line",
    "MEASURED NUMBER": 177
  },
  {
    "MOLECULE": "CCCCC=CC=CC=CCCCCCCCC(=O)O",
    "TEST SYSTEM": "enteroendocrine STC1-1 cell line",
    "MEASURED NUMBER": 126
  },
  {
    "MOLECULE": "CCCCCCCC/C=C\\CC/C=C\\CCCC(=O)O",
    "TEST SYSTEM": "enteroendocrine STC1-1 cell line",
    "MEASURED NUMBER": 82
  },
  {
    "MOLECULE": "CCCCC/C=C\\C/C=C\\CCCCCCCC(=O)O",
    "TEST SYSTEM": "enteroendocrine STC1-1 cell line",
    "MEASURED NUMBER": 68
  },
  {
    "MOLECULE": "CCCC\\C=C/C=C/C=C\\CCCCCCCC(=O)O",
    "TEST SYSTEM": "enteroendocrine STC1-1 cell line",
    "MEASURED NUMBER": 320
  }
]
